Origin of measurements: patent US20160297884A1

For each of the binders below, state its koff.
Biological target: T1, Human BCMA (human, UniProt Q02223 1-54, limits assumed)
T1 construct: Soluble analyte in SPR; construct not described; also called huBCMA; B-cell maturation antigen
T1 sequence (looked up): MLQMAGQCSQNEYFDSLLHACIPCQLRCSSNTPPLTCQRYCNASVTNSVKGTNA
Assay: SPR, IgG immobilised, 37 C
One number for each entry, in s⁻¹.

L3.PY/L1.FF/H2.HA (antibody, V domains shown, IgG) VH: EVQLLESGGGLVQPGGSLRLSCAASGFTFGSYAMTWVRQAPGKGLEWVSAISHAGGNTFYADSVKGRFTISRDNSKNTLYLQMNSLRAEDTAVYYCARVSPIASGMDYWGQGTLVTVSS VL: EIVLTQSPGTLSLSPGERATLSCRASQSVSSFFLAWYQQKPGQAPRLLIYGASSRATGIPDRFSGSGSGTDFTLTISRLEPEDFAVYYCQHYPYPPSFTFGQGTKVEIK; 0.00219
L3.PY/L1.AH/H3.AQ (antibody, V domains shown, IgG) VH: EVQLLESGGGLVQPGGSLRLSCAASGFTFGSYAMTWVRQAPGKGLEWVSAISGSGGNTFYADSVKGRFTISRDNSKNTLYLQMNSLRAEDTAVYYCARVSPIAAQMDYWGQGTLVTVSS VL: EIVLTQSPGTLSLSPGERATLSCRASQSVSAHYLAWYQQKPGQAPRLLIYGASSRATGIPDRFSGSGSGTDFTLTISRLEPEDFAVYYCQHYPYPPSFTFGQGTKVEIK; 0.00197
L3.PY/L3.KF/H2.YQ (antibody, V domains shown, IgG) VH: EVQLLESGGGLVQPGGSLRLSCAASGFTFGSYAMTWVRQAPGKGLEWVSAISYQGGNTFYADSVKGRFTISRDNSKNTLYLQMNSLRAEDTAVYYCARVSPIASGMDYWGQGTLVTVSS VL: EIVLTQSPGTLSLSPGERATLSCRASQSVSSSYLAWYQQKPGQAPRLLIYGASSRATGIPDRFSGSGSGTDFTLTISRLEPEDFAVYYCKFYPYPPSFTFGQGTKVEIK; 0.00223
L3.PY/L1.PS/H2.LT (antibody, V domains shown, IgG) VH: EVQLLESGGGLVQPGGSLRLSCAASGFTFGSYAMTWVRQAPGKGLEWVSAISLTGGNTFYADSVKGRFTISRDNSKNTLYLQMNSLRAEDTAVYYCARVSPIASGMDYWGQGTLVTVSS VL: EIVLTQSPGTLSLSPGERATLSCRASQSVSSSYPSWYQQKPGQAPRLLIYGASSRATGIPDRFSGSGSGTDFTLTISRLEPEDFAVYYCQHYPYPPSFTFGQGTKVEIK; 0.00465
L3.PY/L1.PH/H2.QR (antibody, V domains shown, IgG) VH: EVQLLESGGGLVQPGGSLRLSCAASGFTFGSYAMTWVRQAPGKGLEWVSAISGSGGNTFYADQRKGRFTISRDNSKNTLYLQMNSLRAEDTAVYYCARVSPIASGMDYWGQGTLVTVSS VL: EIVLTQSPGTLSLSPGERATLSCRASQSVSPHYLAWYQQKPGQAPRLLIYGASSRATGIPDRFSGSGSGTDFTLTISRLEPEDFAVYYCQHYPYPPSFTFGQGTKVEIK; 0.00236
L3.PY/L1.PH/H3.TAQ (antibody, V domains shown, IgG) VH: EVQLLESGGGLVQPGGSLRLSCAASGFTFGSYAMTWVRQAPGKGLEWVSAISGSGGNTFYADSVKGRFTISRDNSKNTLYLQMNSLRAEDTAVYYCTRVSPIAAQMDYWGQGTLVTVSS VL: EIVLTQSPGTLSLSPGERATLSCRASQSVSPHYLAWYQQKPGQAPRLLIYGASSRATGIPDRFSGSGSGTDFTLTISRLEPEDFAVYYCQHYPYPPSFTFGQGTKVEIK; 0.00213
L3.PY/L1.PS/H3.AQ (antibody, V domains shown, IgG) VH: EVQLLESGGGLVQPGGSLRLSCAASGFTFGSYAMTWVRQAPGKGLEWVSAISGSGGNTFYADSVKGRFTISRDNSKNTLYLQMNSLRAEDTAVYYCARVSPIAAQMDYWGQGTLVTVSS VL: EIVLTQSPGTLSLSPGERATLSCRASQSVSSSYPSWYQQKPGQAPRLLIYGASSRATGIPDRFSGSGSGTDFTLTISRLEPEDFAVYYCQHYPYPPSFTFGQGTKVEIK; 0.00179
L3.PY/L3.KF/P6E01 (antibody, V domains shown, IgG) VH: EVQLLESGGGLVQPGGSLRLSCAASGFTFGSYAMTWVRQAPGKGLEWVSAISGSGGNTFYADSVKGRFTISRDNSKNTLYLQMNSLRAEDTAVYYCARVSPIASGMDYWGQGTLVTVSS VL: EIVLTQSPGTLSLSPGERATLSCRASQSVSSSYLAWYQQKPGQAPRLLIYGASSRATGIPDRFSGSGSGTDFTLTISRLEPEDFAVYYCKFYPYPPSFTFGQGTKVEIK; 0.00208

# next binder below
Output measured koff for this item: L3.PY/L1.PH/H3.AE (antibody, V domains shown, IgG) VH: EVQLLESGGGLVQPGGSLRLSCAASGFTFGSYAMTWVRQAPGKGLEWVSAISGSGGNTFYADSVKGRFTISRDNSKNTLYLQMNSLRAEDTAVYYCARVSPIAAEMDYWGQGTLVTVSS VL: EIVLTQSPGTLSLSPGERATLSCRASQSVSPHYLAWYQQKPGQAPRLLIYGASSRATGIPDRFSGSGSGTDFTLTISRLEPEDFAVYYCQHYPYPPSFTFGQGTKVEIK 0.00134
